Hey, just so you know, these numbers are from the supplement of paper PMC10567573.

B1: TTC32 (parent)
chain: YSAYIRRCACAASSDESPGSKCSP

Variants of: B1
Experiment: protein stability index of a GFP-peptide fusion (GPS, HEK-293T) (PSI 1-6); higher = more stable;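 further: lentivirally expressed fusions sorted by FACS into six bins by GFP to DsRed ratio, PSI derived from sequencing read proportions per bin multiplied by bin number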
Details: c terminus: a fixed tail appended
Exercise: for every item that follows, state its recorded protein stability index.
# respond with the number and nothing more

Record S2M , field protein stability index: 1.91

# protein stability index of Y4N = 2.85

For A9C the variant record lists protein stability index as 1.59

Sample R7W ; protein stability index observed: 2.53

The reported protein stability index of the variant I5R was 2.27

Sample I5Y ; protein stability index observed: 2.45

Noted for R7V : its protein stability index reads 1.64

The reported protein stability index of the variant K21W was 2.23

Sample D15E ; protein stability index observed: 2.35

Looking up R6T , I see its protein stability index listed as 2.08

The measured protein stability index associated with Y1F reads 2.27

Entry C22E , protein stability index reported as 2.96

Just so you know, measured protein stability index for C22F came out at 1.69

Lookup result for G19L ; measured protein stability index: 1.31

Reported protein stability index for S20G was 1.97

Notebook: S17V , protein stability index read as 2.02

Per the record, P18G has protein stability index of 2.43

According to the records, this variant E16W displays protein stability index of 3.48

For record G19A the listed protein stability index is 2.02

Kindly note the recorded protein stability index for R7L , which is 2.16

A12F has a reported protein stability index of 2.15

The reported protein stability index of the variant P24N was 2.31

Input K21L . Output protein stability index: 1.95

// protein stability index lookup, variant = Y1Q , result: 2.56

Note to self: protein stability index recorded for S14L was 2

The recorded protein stability index for S23H is 1.6

Memo: A3L , reported protein stability index: 2.18

Documented protein stability index of Y4L : 2.45

protein stability index measured on P24M = 2.24

So, P18R ? Its protein stability index was 2.06

// protein stability index value for Y1A : 2.62

Value of measured protein stability index for the entry A12N : 2.33

What the record says about R6G : protein stability index is 2.53

For record E16K the listed protein stability index is 1.53

// protein stability index value for P24Q : 2.04

// protein stability index lookup, variant = A3Y , result: 1.75

Input P18K . Output protein stability index: 2.82

The variant identified as P24S registered its protein stability index at 1.95

# protein stability index of K21I = 1.86

Briefly, protein stability index measured for S23G : 2.08

Input S17I . Output protein stability index: 2.66
